molecular target: human CXCR4 (Homo sapiens, UniProt P61073); construct: expressed in transfected cells; host or cells: mouse pre-B cell line 300-19; assay: Ca2+-assay: CXCR4-antagonizing activity (SDF-1 induced calcium mobilization); format: cell-based; conditions: mouse pre-B cell line 300-19 stably transfected with human CXCR4, read-out: IC50% [nM] ± SD, CXCR4 receptor
Sequence (P61073 whole entry): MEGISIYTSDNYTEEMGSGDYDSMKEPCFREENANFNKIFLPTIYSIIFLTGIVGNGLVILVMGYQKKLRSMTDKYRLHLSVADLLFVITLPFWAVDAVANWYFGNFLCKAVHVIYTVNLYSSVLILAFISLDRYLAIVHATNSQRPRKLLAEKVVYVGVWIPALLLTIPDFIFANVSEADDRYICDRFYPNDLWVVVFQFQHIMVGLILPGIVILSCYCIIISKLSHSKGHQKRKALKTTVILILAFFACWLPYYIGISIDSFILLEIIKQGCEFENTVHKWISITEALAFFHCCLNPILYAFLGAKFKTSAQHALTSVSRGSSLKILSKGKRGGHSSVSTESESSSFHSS
Starred links: 1 amine or outer side, 2 acyl side, 3 side chain; linkers in the order of their positions; H or OH if unused. Positions of bridges follow the written chain, without caps; N, C: chain ends. Non-standard residues stand in square brackets, D forms with d. Residues, ends and D or L forms follow the SMILES beside them. X2 = O=C(CC[C@H](Cc1ccc(O)cc1)N[*:1])[*:2]; Dab = NCC[C@H](N)C(=O)O
For each record, write down the corresponding IC50.
One number for each entry, in nM.

Guide cases for IC50, answers given:
C[C@@H]1NC(=O)[C@H](Cc2c[nH]cn2)NC(=O)[C@H](Cc2ccc(O)cc2)NC(=O)[C@@H]2CCCN2C(=O)[C@@H](Cc2ccncc2)NC(=O)[C@H](CCCCN)NC(=O)[C@H](CCC(N)=O)NC(=O)[C@H](Cc2ccc(O)cc2)NC(=O)[C@@H]2CSSC[C@H](NC1=O)C(=O)N[C@@H](CO)C(=O)N[C@@H](C)C(=O)N1CCC[C@@H]1C(=O)N[C@@H](CCN)C(=O)N[C@@H](CCCNC(=N)N)C(=O)N[C@@H](Cc1ccc(O)cc1)C(=O)N2    0.17
C[C@@H]1NC(=O)[C@H](Cc2c[nH]cn2)NC(=O)CC[C@H](Cc2ccc(O)cc2)NC(=O)[C@@H]2CCCN2C(=O)[C@H]2CCCN2C(=O)[C@H](CCCCN)NC(=O)[C@H](CCC(N)=O)NC(=O)[C@H](Cc2ccc(O)cc2)NC(=O)[C@@H]2CSSC[C@H](NC1=O)C(=O)N[C@@H](CO)C(=O)N[C@@H](C)C(=O)N1CCC[C@@H]1C(=O)N[C@@H](CCN)C(=O)N[C@@H](CCCNC(=N)N)C(=O)N[C@@H](Cc1ccc(O)cc1)C(=O)N2 [compound 18] (cyclo([X2]HACSA[dP][Dab]RYCYQK[dP]P); disulfide 4-11)    0.39
CC[C@@H](C)[C@@H]1C(=O)N2CCC[C@H]2C(=O)N[C@@H](Cc2ccc(O)cc2)C(=O)N[C@@H](Cc2c[nH]cn2)C(=O)N[C@@H](C)C(=O)N[C@H]2CSSC[C@H](NC(=O)[C@H](Cc3ccc(O)cc3)NC(=O)[C@H](CCCNC(=N)N)NC(=O)[C@H](CCN)NC(=O)[C@H]3CCCN3C(=O)[C@H](C)NC(=O)[C@H](CO)NC2=O)C(=O)N[C@@H](Cc2ccc(O)cc2)C(=O)N[C@@H](CCC(N)=O)C(=O)N[C@@H](CCCCN)C(=O)N1C    1.22

// fetch IC50 given entry C[C@@H]1NC(=O)[C@H](Cc2c[nH]cn2)NC(=O)[C@H](Cc2ccc(O)cc2)NC(=O)[C@@H]2CCCN2C(=O)[C@@H](CC2CCCCC2)NC(=O)[C@H](CCCCN)NC(=O)[C@H](CCC(N)=O)NC(=O)[C@H](Cc2ccc(O)cc2)NC(=O)[C@@H]2CSSC[C@H](NC1=O)C(=O)N[C@@H](CO)C(=O)N[C@@H](C)C(=O)N1CCC[C@@H]1C(=O)N[C@@H](CCN)C(=O)N[C@@H](CCCNC(=N)N)C(=O)N[C@@H](Cc1ccc(O)cc1)C(=O)N2 1.3

Reference source for all entries: patent US8865656B2
